# Test system: Vero E6 infected with SARS-CoV-2
# protocol-description: inhibition of SARS-CoV-2 cytopathic effect; higher = more antiviral protection, active = above 15
# measurement-conditions: 8.33 nM; 48 h
attribute-measured: inhibition of SARS-CoV-2 cytopathic effect (%)
Write the answer as a number in %, unit excluded.

Q: Can you look up inhibition of SARS-CoV-2 cytopathic effect on Vero E6 infected with SARS-CoV-2 for CCCC[N+]1(C)[C@@H]2C[C@@H](OC(=O)[C@H](CO)c3ccccc3)C[C@H]1[C@@H]1O[C@@H]12 (stereo partly specified) [butylscopolamine-bromide] ?
A: -2.18

Q: Fill in the recorded inhibition of SARS-CoV-2 cytopathic effect for this compound, with Vero E6 infected with SARS-CoV-2 as test system: C[C@]12C=CC(=O)C=C1CC[C@@H]1[C@@H]2[C@@H](O)C[C@@]2(C)[C@H]1CC[C@]2(O)C(=O)COC(=O)CCC(=O)O [prednisolone-hemisuccinate]
A: 0.74

Q: API: value(readout=inhibition of SARS-CoV-2 cytopathic effect, system=Vero E6 infected with SARS-CoV-2) for record CCOC(=O)[C@H](CCc1ccccc1)N[C@@H](C)C(=O)N1CCC[C@H]1C(=O)O
A: -1.35

Q: Give the reported inhibition of SARS-CoV-2 cytopathic effect for CC(C)CC(N)=O [isovaleramide] (system: Vero E6 infected with SARS-CoV-2).
A: -1.79

Q: Vero E6 infected with SARS-CoV-2 / inhibition of SARS-CoV-2 cytopathic effect / COc1ccc(CC(=O)NC(/N=C(\NC#N)Nc2cccc3ncccc23)C(C)(C)C)cc1OC (stereo unspecified) : value?
A: 1.83

Q: Query inhibition of SARS-CoV-2 cytopathic effect on Vero E6 infected with SARS-CoV-2 for CC[C@H]1OC(=O)[C@H](C)[C@@H](O[C@H]2C[C@@](C)(OC)[C@@H](O)[C@H](C)O2)[C@H](C)[C@@H](O[C@@H]2O[C@H](C)C[C@H](N(C)C)[C@H]2O)[C@](C)(O)C[C@@H](C)CN(C)[C@H](C)[C@@H](O)[C@]1(C)O
A: 1.86
